Entries and their measured melting point follow.

Solved entries:
{"substanceSmiles": "CCN1N=C(c2ccccc2)CC1=O", "melting point": "140 to 142 °C"}
{"substanceSmiles": "Cn1c(-c2ccccc2)cnc1S", "melting point": "180 to 182 °C"}
{"substanceSmiles": "Cc1nc2c(c(C)c1CC(=O)O)c(=O)[nH]n2C", "melting point": "239 to 241 °C"}

Sample Nc1cccnc1Nc1ccc2c(c1)C(=O)NC2=O — what was its melting point? 269 to 271 °C

Return reported melting point; argument: CC(C)CC(=O)Nc1ccccc1C(=O)O 121 to 123 °C

Field request: melting point | item: NS(=O)(=O)c1ccc2c(c1)OCCO2 197 to 199 °C

Would you mind telling me what melting point value was observed for O=C(O)c1nn(-c2ccccc2)cc1CCCO ? 119 to 121 °C

====

The compounds listed here are annotated with their melting point.

{"compound": "OCc1cnc(-c2ccco2)o1", "melting point": "99 to 101 °C"}

Recorded melting point of CC(=O)c1ccc(OCC(=O)Nc2ccccc2)cc1 , please. 94 to 96 °C

Given Clc1ccnc(C2=NCCO2)c1 , state its recorded melting point. 73 to 75 °C

Bench note: what melting point did NCc1ccc(N2CCC(O)CC2)c(F)c1 show? 104 to 106 °C

What does the record list as melting point for Cc1ccc(NC(=O)C(Cl)c2ccccc2)cc1Cl (stereo not drawn) ? 120 to 122 °C

Return reported melting point; argument: CCOC(=O)c1c(N)nn2cc[nH]c12 168 to 170 °C

Consider the compound shown here: O=C(O)CCc1ccc(-c2ccccc2F)o1 What is its recorded melting point? 117 to 119 °C

Record request: melting point value, item Cc1cc(CO)ncn1 74 to 76 °C

====

Reported melting point values are given for each entry in this list.

The following compounds have reported results that may help.
{"compound": "N#Cc1ccccc1Oc1ccc(C(=O)O)cc1Cl", "melting point": "174 to 176 °C"}
{"compound": "O=C(O)c1ccnc(OC2CCC2)c1", "melting point": "153 to 155 °C"}
{"compound": "O=S(=O)(Nc1cn[nH]c1)c1ccccc1F", "melting point": "186 to 188 °C"}
{"compound": "CC(O)c1ccc2c(c1)CC(=O)N2 (stereo not drawn)", "melting point": "171 to 173 °C"}

Fill blank: measured melting point of the compound OC1CCCCC1c1ccc(Cl)cc1 (stereo not drawn) is ____. 83 to 85 °C

Which melting point value belongs to Nc1cccc(CS(=O)(=O)c2ccc(F)cc2F)c1 ? 97 to 99 °C

Data request, read-out melting point, for CC(C)(C)OC(=O)N1CC(CC(=O)O)C1 109 to 111 °C

Data request, read-out melting point, for O=C(O)Cn1nnc(COc2ccccc2)n1 111 to 113 °C

Any idea what its melting point is? The compound is C#CC#CCCCCCC(=O)O 35 to 37 °C

I'd like to know its melting point. The compound in question is O=C(NO)C12CC3CC(CC(C3)C1)C2 110 to 112 °C

Field request: melting point | item: Cc1ccc(C=CCC(=O)O)cc1 105 to 107 °C

What measured melting point goes with Cc1c(C#N)c(NC(=O)CCl)n(Cc2ccc(F)cc2)c1C ? 279 to 281 °C

For Nc1c([N+](=O)[O-])cc(F)c(F)c1Br , what is its reported melting point? 104 to 106 °C
